- Tested on: HCV replicon cells
- Assay Comment: HCV replicon FRET / luciferase assay (96-well plates)
- Format: cell-based
- Details: Hepatitis C virus, Table 1a; HCV replicon; read-out: EC50
List of EC50 values.

| Smiles String | Measured Target | EC50 |
| --- | --- | --- |
| CNC(=O)c1c(-c2ccc(F)cc2)oc2ccc(-c3ccc(Cl)c(C(=O)O)c3)cc12 | HCV replicon cells | > 10 µM |
| CNC(=O)c1c(-c2ccc(F)cc2)oc2ccc(-c3cccc(C(=O)NC4(C(=O)NS(=O)(=O)C5CC5)CC4)c3)cc12 | HCV replicon cells | > 10 µM |
| CNC(=O)c1c(-c2ccc(F)cc2)oc2ccc(-c3ccc(Cl)c(C(=O)NCC(C)C)c3)cc12 | HCV replicon cells | 1 to 10 µM |
| CNC(=O)c1c(-c2ccc(F)cc2)oc2ccc(-c3cccc(C(=O)NC(C)(C)C(=O)O)c3)cc12 | HCV replicon cells | > 10 µM |

Here is the next item to consider.
-- ask // map `CNC(=O)c1c(-c2ccc(F)cc2)oc2ccc(-c3cccc(C(=O)NS(=O)(=O)C(C)(C)C)c3)cc12` to recorded EC50 (system: HCV replicon cells)
-- reply 1 to 10 µM

====

List of EC50 values.
- System: HCV replicon cells
- Assay Comment: HCV replicon FRET / luciferase assay (96-well plates)
- Assay type: cell-based
- Details: Hepatitis C virus, Table 1a; HCV replicon; read-out: EC50

Please review the entries below; each comes with its answer.
| Compound | EC50 |
| --- | --- |
| CNC(=O)c1c(-c2ccc(F)cc2)oc2ccc(-c3cccc(C(=O)NCCNC(C)=O)c3)cc12 | 1000 to 10000 nM |
| CNC(=O)c1c(-c2ccc(F)cc2)oc2ccc(-c3cccc(CCC(=O)O)c3)cc12 | > 10000 nM |
| CNC(=O)c1c(-c2ccc(F)cc2)oc2ccc(-c3cccc(C(=O)NC(C)c4ccccc4)c3)cc12 (centres unmarked) | < 250 nM |

-- ask # query: EC50 of entry CNC(=O)c1c(-c2ccc(F)cc2)oc2ccc(-c3cccc(C(=O)N4CC(C)OC(C)C4)c3)cc12 (centres unmarked)
-- reply 1000 to 10000 nM

-- ask # query: EC50 of entry `CN1CN(C)c2c(-c3cccc(C(=O)NC(C)(C)c4ccccc4)c3)ccc3oc(-c4ccc(F)cc4)c(c23)C1=O`
-- reply > 10000 nM

-- ask # query: EC50 of entry `CNC(=O)c1c(-c2ccc(F)cc2)oc2ccc(-c3ccc(F)cc3OCc3ccccc3)cc12`
-- reply 1000 to 10000 nM

-- ask # query: EC50 of entry `CCN(CC)C(=O)c1cccc(-c2ccc3oc(-c4ccc(F)cc4)c(C(=O)NC)c3c2)c1`
-- reply 1000 to 10000 nM

-- ask # query: EC50 of entry `CNC(=O)c1c(-c2ccc(F)cc2)oc2ccc(-c3cccc(C(=O)NCc4cccc(O)c4)c3)cc12`
-- reply < 250 nM

====

- Tested on: HCV replicon cells
- Assay Comment: HCV replicon FRET / luciferase assay (96-well plates)
- Format: cell-based
- Details: Hepatitis C virus, Table 1a; HCV replicon; read-out: EC50
pEC50: −log10 of the molar value.
List of pEC50 values.

| Compound | pEC50 |
| --- | --- |
| CNC(=O)c1c(-c2ccc(F)cc2)oc2ccc(-c3cccc(C(=O)Nn4c(C)nnc4C)c3)cc12 | < 5.00 |
| CCC(C)NC(=O)c1cccc(-c2ccc3oc(-c4ccc(F)cc4)c(C(=O)NC)c3c2)c1 (centres unmarked) | > 6.60 |
| CNC(=O)c1c(-c2ccc(F)cc2)oc2ccc(-c3cccc(C(=O)NCc4ccccn4)c3)cc12 | 6.00 to 6.60 |
| CCNC(=O)c1cccc(-c2ccc3oc(-c4ccc(F)cc4)c(C(=O)NC)c3c2)c1 | 6.00 to 6.60 |
| CNC(=O)c1c(-c2ccc(F)cc2)oc2ccc(-c3cccc(C(=O)N(C)C)c3)cc12 | 5.00 to 6.00 |
| CNC(=O)c1c(-c2ccc(F)cc2)oc2ccc(-c3cccc(C(=O)N[C@@H](C)C(=O)OC)c3)cc12 | 5.00 to 6.00 |

-- ask # query: pEC50 of entry `CNC(=O)c1c(-c2ccc(F)cc2)oc2ccc(-c3cccc(C(=O)NCCc4ccccc4)c3)cc12`
-- reply < 5.00

-- ask # query: pEC50 of entry `CNC(=O)c1c(-c2ccc(F)cc2)oc2ccc(-c3cccc(C(=O)NCc4ccccc4O)c3)cc12`
-- reply 5.00 to 6.00
